- Protocol Text: modulators of AGP1-GFP expression in yeast TOR pathway, primary screen, cell-based, multiplex flow cytometry, S. cerevisiae, MLPCN library (AID 2066);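 note: median GFP channel fluorescence of the gated AGP1 strain per well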
- Setup Conditions: 3 h, at 10 µM, GFP as percent of DMSO wells
The whole screen tested about 320,000 compounds, of which about 50 (0.02%) were called active.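 Rule for the calls: active = GFP response relative to DMSO above a set limit, near screen average plus 3 SD (cut at about 150% in these data); inconclusive = fewer than 70 cells counted for the yeast strain; inactive = the rest.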 Only a selection was taken, and actives are over-represented in it overall.
Respond with a class label; see true for active, false for inactive

[[record]]
compound = "CC1=CC=CN2C1=NC(=O)CC2(C)C(=O)N(CC(=O)NC1CCCC1)c1ccccc1C (centres undefined)"
category = "false"

[[record]]
compound = "Cc1ccc(NC(=O)Cn2cccc2C2=NC(c3ccccc3)CO2)c(C)c1 (centres undefined)"
category = "false"

[[record]]
compound = "O=C1c2ccccc2C(=O)N1CC1c2ccccc2CCN1S(=O)(=O)c1ccccc1 (centres undefined)"
category = "false"

[[record]]
compound = "O=C(O)c1cccc(S(=O)(=O)N2CC=C(c3ccccc3)CC2)c1"
category = "false"

[[record]]
compound = "Cc1ccc(S(=O)(=O)c2nnn3c2nc(N2CCN(c4ccccn4)CC2)c2ccccc23)cc1"
category = "false"


Let's switch to this compound now.
## Task Tell me the assay call for `O=C(CCC1CCCCC1)Nc1cc(C(F)(F)F)ccc1N1CCOCC1` please.
## Result false
